test system: UniProt:Q16773
Sequence (Q16773 whole entry): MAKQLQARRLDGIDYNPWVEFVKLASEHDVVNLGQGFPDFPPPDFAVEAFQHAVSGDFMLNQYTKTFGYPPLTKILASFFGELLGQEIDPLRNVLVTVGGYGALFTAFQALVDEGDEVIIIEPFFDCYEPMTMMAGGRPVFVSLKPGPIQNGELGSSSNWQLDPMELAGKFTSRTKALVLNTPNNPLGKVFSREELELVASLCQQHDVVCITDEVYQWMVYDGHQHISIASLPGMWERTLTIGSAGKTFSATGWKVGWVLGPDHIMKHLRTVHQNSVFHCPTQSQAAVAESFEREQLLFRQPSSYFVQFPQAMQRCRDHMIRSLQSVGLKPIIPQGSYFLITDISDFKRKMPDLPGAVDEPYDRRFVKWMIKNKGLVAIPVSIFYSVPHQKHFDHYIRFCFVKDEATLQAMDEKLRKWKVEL
method notes: HPLC inhibition assay on recombinant human KAT-I (KYNA production)
Format: biochemical

compound: C[C@]12CC[C@@H]3c4ccc(O)cc4CC[C@H]3[C@@H]1CC[C@@H]2O [estradiol, reference compound]
IC50: > 2000 µM

====

test system: KAT-II (Homo sapiens)
Construct: made in house
Sequence (Q8N5Z0 30-425): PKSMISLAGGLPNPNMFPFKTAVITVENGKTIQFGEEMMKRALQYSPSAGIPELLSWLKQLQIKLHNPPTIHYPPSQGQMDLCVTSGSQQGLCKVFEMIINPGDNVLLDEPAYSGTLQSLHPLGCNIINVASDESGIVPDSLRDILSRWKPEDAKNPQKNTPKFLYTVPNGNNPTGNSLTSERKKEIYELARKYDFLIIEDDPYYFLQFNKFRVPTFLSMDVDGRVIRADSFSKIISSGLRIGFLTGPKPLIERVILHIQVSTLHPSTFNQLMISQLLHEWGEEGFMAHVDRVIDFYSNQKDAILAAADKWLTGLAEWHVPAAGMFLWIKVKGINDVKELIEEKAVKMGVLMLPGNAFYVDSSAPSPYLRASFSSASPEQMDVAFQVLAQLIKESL
method notes: Surface plasmon resonance binding assay, steady state affinity model
assay conditions: KAT-II on CM5 chip, 25 °C, chi^2 0.481
pKd: −log10 of the molar value.

molecule: C[C@]12CC[C@@H]3c4ccc(OS(=O)(=O)O)cc4CC[C@H]3[C@@H]1CC[C@@H]2OS(=O)(=O)O [estradiol disulfate]
pKd: 5.30

====

test system: KAT-II (Homo sapiens)
Construct: made in house
method notes: HPLC inhibition assay on recombinant human KAT-II (KYNA production)
Type: biochemical
assay conditions: recombinant human KAT-II, inhibitor 1–2000 µM; read-out: IC50 on KAT-II
Structures can show the parent of a compound that is named as a salt.

compound: C[C@]12CCC3c4ccc(OS(=O)(=O)O)cc4CCC3C1CC[C@@H]2O (stereo partly shown) [estradiol 3-sulfate, estradiol 3-sulfate sodium salt]
IC50: > 2 mM

====

test system: KAT-II (Homo sapiens)
Construct: made in house
method notes: HPLC inhibition assay on recombinant human KAT-II (KYNA production)
Type: biochemical
Protocol: GraphPad Prism v7.02 software[59] was used to develop a nonlinear regression fit of the data collected in the inhibition assays. The IC50 is reported with the standard error. The expression and purification of recombinant KAT-I and KAT-II protein was completed as previously described[60],[61]. […] The production of KYNA was measured using HPLC with UV detection at a wavelength of 330 nm, using a C18 reverse-phase column, and 50% (v/v) water and 50% (v/v) methanol mobile phase. […]

compound: C[C@]12CC[C@@H]3c4ccc(O)cc4CC[C@H]3[C@@H]1CC[C@@H]2O [estradiol, reference compound]
IC50: > 2000 µM
